These measurements were taken from patent US12630528B2.

- TEST TARGET: human DGAT2 (Homo sapiens, UniProt Q96PD7)
- Construct: FLAG (DYKDDDDK); membrane fraction used
- Sequence (Q96PD7 1-388): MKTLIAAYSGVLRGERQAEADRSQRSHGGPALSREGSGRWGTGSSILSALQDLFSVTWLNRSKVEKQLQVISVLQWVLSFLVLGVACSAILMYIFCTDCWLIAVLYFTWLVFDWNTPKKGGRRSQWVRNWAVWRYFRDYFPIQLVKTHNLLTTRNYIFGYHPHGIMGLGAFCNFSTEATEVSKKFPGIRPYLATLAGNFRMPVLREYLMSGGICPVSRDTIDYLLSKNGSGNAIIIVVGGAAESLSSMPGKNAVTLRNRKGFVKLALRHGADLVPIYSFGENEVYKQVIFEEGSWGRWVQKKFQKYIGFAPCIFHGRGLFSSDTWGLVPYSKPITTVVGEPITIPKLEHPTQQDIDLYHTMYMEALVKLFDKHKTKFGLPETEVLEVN
- PROTOCOL DESCRIPTION: DGAT2 enzyme activity inhibition, Phospholipid FlashPlate SPA
- MEASUREMENT CONTEXT: recombinant human DGAT2 membrane protein from Sf-21 cells; inhibition of [14C]-TG production; 37° C.
Entries and their measured pIC50 follow.
pIC50 here is simply -log10 of the concentration when that concentration is written in mol/L.

The cases that follow already have their pIC50 on record.
Req: Look up pIC50: CCOc1cccnc1O[C@@H]1CCCN(c2cncc(Nc3nccc(-c4cccc(CC(C)(C)C(=O)O)c4)n3)n2)C1
Resp: 6.82

Req: Look up pIC50: CCOc1ccccc1O[C@@H]1CCCN(c2cncc(Nc3nccc(N4CCN(CC(=O)O)CC4)n3)n2)C1
Resp: 5.54

Req: Look up pIC50: CCOc1ccccc1O[C@@H]1CCCN(c2cncc(Nc3cccc(C(C)(C)C(=O)O)n3)n2)C1
Resp: 5.14

Req: Look up pIC50: CCOc1ccccc1O[C@@H]1CCCN(c2cncc(Nc3ccc(-c4ccccc4)cn3)n2)C1
Resp: 5.77

Req: Look up pIC50: CCOc1cccnc1O[C@@H]1CCCN(c2cncc(Nc3cccc(-c4cc(OC(C)(C)C(=O)O)ccc4F)n3)n2)C1
Resp: 6.66

Alright, here's another compound for you.
Req: Look up pIC50: CCOc1ccccc1O[C@@H]1CCCN(c2cncc(Nc3nccc(N4CCC[C@@H](CCC(=O)O)C4)n3)n2)C1
Resp: 5.68
